Test system: Danio rerio Tg(wt1b:EGFP) embryo, pronephros
Assay explanation: glomerular separation, fold change vs DMSO control; higher = glomeruli further apart (abnormal)
Test context: 25 µM; exposure: 24-48 hpf
Structures can show the parent of a compound that is named as a salt.
Observed property: glomerular separation
Give your answer as a number; write no unit.

Here's what some known entries look like.
[
  {
    "Molecule": "CC(=O)O[C@]1(C(C)=O)CC[C@H]2[C@@H]3C=C(Cl)C4=CC(=O)[C@@H]5C[C@@H]5[C@]4(C)[C@H]3CC[C@@]21C [Cyproterone acetate]",
    "glomerular separation": 1.2
  },
  {
    "Molecule": "CN(C)CCOC(c1ccccc1)c1ccccc1 [Diphenhydramine hydrochloride]",
    "glomerular separation": 0.907
  },
  {
    "Molecule": "CO/N=C(\\C(=O)N[C@@H]1C(=O)N2C(C(=O)OC(C)OC(C)=O)=C(COC(N)=O)CS[C@H]12)c1ccco1 (some centres not stated)",
    "glomerular separation": 1.21
  },
  {
    "Molecule": "COc1ccccc1OCCNCC(O)COc1cccc2[nH]c3ccccc3c12 (configuration not stated)",
    "glomerular separation": 1.02
  },
  {
    "Molecule": "CC(C)(C)NC(=O)[C@H]1CC[C@H]2[C@@H]3CC[C@H]4NC(=O)C=C[C@]4(C)[C@H]3CC[C@]12C [Finasteride]",
    "glomerular separation": 0.797
  }
]

Query string: Give glomerular separation for Nc1c2ccccc2nc2ccccc12
Result string: 0.947

Query string: Give glomerular separation for CC(C)(O)c1ccccc1CC[C@@H](SCC1(CC(=O)O)CC1)c1cccc(/C=C/c2ccc3ccc(Cl)cc3n2)c1
Result string: 0.861

Query string: Give glomerular separation for CCCN(CCC)C(=O)C(CCC(=O)O)NC(=O)c1ccccc1 (configuration not stated) [Proglumide]
Result string: 0.949

Query string: Give glomerular separation for C#C[C@]1(O)CC[C@H]2[C@@H]3[C@H](C)CC4=C(CCC(=O)C4)[C@H]3CC[C@@]21C
Result string: 0.915

* * *

Tested on: Danio rerio Tg(wt1b:EGFP) embryo, pronephros
Assay explanation: pronephric angle neck segment to proximal convoluted tubule (mean of left and right), fold change vs DMSO control; higher = larger pronephric angle
Test context: 25 µM; exposure: 24-48 hpf
Where a name gives a salt, the structure may show the parent alone.
Observed property: pronephric angle neck segment
Give your answer as a number; write no unit.

[
  {
    "Compound": "C[N+](C)(C)CCCCCC[N+](C)(C)C [Hexamethonium dibromide dihydrate]",
    "Observed property": "pronephric angle neck segment",
    "Value reported": 0.997
  },
  {
    "Compound": "CCCCCCC[N+](CC)(CC)CCCCc1ccc(Cl)cc1 [Clofilium tosylate]",
    "Observed property": "pronephric angle neck segment",
    "Value reported": 0.983
  }
]

Now turn to the next compound.
Query string: Supply pronephric angle neck segment measured with Danio rerio Tg(wt1b:EGFP) embryo, pronephros for Clc1ccc(CSC(Cn2ccnc2)c2ccc(Cl)cc2Cl)cc1 (stereo not drawn) [Sulconazole nitrate] .
Result string: 1.38

* * *

Test system: Danio rerio Tg(wt1b:EGFP) embryo, pronephros
Assay explanation: glomerular width (mean of left and right), fold change vs DMSO control; higher = wider glomerulus
Test context: 25 µM; exposure: 24-48 hpf
Where a name gives a salt, the structure may show the parent alone.
Observed property: glomerular width

Here's what some known entries look like.
[
  {
    "Compound": "C[C@H]1O[C@H](O[C@H]2[C@H](O)[C@@H](O)[C@@H](O[C@H]3[C@H](O)[C@@H](O)C(O)O[C@@H]3CO)O[C@@H]2CO)[C@H](O)[C@@H](O)[C@@H]1N[C@H]1C=C(CO)[C@@H](O)[C@H](O)[C@H]1O (some centres undefined) [Acarbose]",
    "Target of assay": "Danio rerio Tg(wt1b:EGFP) embryo, pronephros",
    "glomerular width": 0.879
  },
  {
    "Compound": "COC1=CC(=O)C[C@@H](C)[C@]12Oc1c(Cl)c(OC)cc(OC)c1C2=O [Griseofulvin]",
    "Target of assay": "Danio rerio Tg(wt1b:EGFP) embryo, pronephros",
    "glomerular width": 1
  },
  {
    "Compound": "Nc1nc(N)nc(-c2cc(Cl)ccc2Cl)n1 [Irsogladine maleate]",
    "Target of assay": "Danio rerio Tg(wt1b:EGFP) embryo, pronephros",
    "glomerular width": 0.976
  }
]

Now turn to the next compound.
Query string: Supply glomerular width measured with Danio rerio Tg(wt1b:EGFP) embryo, pronephros for O=S(=O)(O)c1cc(O)ccc1O [Ethamsylate] .
Result string: 0.89

All values here come from the supplement of paper PMC7366291.
